test system: MCF7; experiment: percentage of EdU-negative (G0-arrested) nuclei per well, 72 h; higher = more G0 arrest; conditions: protein concentration 0.0225 µM; reference: sequence is the full UniProt precursor, the tested protein was the secreted form or ectodomain;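 further: secreted proteins added to cultured cells, EdU pulse at the end, nuclei found by Hoechst imaging, EdU status from nuclear versus surrounding ring intensity ratio, PBS as neutral control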
metric: percentage of EdU-negative (%)
Respond numerically; units are % and should not be typed.

Return percentage of EdU-negative (reported value) for this sequence: `MQLTRCCFVFLVQGSLYLVICGQDDGPPGSEDPERDDHEGQPRPRVPRKRGHISPKSRPMANSTLLGLLAPPGEAWGILGQPPNRPNHSPPPSAKVKKIFGWGDFYSNIKTVALNLLVTGKIVDHGNGTFSVHFQHNATGQGNISISLVPPSKAVEFHQEQQIFIEAKASKIFNCRMEWEKVERGRRTSLCTHDPAKICSRDHAQSSATWSCSQPFKVVCVYIAFYSTDYRLVQKVCPDYNYHSDTPYYPSG`
28.1

Supply measured percentage of EdU-negative of `MLLEPGRGCCALAILLAIVDIQSGGCINITSSASQEGTRLNLICTVWHKKEEAEGFVVFLCKDRSGDCSPETSLKQLRLKRDPGIDGVGEISSQLMFTISQVTPLHSGTYQCCARSQKSGIRLQGHFFSILFTETGNYTVTGLKQRQHLEFSHNEGTLSSGFLQEKVWVMLVTSLVALQAL` in your reply.
24.1

Let me know recorded percentage of EdU-negative for `MRLAGPLRIVVLVVSVGVTWIVVSILLGGPGSGFPRIQQLFTSPESSVTAAPRARKYKCGLPQPCPEEHLAFRVVSGAANVIGPKICLEDKMLMSSVKDNVGRGLNIALVNGVSGELIEARAFDMWAGDVNDLLKFIRPLHEGTLVFVASYDDPATKMNEETRKLFSELGSRNAKELAFRDSWVFVGAKGVQNKSPFEQHVKNSKHSNKYEGWPEALEMEGCIPRRSTAS` , thanks.
24.6

Specify percentage of EdU-negative for MGSRGQGLLLAYCLLLAFASGLVLSRVPHVQGEQQEWEGTEELPSPPDHAERAEEQHEKYRPSQDQGLPASRCLRCCDPGTSMYPATAVPQINITILKGEKGDRGDRGLQGKYGKTGSAGARGHTGPKGQKGSMGAPGERCKSHYAAFSVGRKKPMHSNHYYQTVIFDTEFVNLYDHFNMFTGKFYCYVPGLYFFSLNVHTWNQKETYLHIMKNEEEVVILFAQVGDRSIMQSQSLMLELREQDQVWVRLYKGERENAIFSEELDTYITFSGYLVKHATEP [Q9BXJ1] and stop.
24.7

Provide percentage of EdU-negative value for the following sequence: `MRLSVRRVLLAAGCALVLVLAVQLGQQVLECRAVLAGLRSPRGAMRPEQEELVMVGTNHVEYRYGKAMPLIFVGGVPRSGTTLMRAMLDAHPEVRCGEETRIIPRVLAMRQAWSKSGREKLRLDEAGVTDEVLDAAMQAFILEVIAKHGEPARVLCNKDPFTLKSSVYLSRLFPNSKFLLMVRDGRASVHSMITRKVTIAGFDLSSYRDCLTKWNKAIEVMYAQCMEVGKEKCLPVYYEQLVLHPRRSLKLILDFLGIAWSDAVLHHEDLIGKPGGVSLSKIERSTDQVIKPVNLEALSKWTGHIPGDVVRDMAQIAPMLAQLGYDPYANPPNYGNPDPFVINNTQRVLKGDYKTPANLKGYFQVNQNSTSSHLGSS`
26.7

Query percentage of EdU-negative for MAGSPTCLTLIYILWQLTGSAASGPVKELVGSVGGAVTFPLKSKVKQVDSIVWTFNTTPLVTIQPEGGTIIVTQNRNRERVDFPDGGYSLKLSKLKKNDSGIYYVGIYSSSLQQPSTQEYVLHVYEHLSKPKVTMGLQSNKNGTCVTNLTCCMEHGEEDVIYTWKALGQAANESHNGSILPISWRWGESDMTFICVARNPVSRNFSSPILARKLCEGAADDPDSSMVLLCLLLVPLLLSLFVLGLFLWFLKRERQEEYIEEKKRVDICRETPNICPHSGENTEYDTIPHTNRTILKEDPANTVYSTVEIPKKMENPHSLLTMPDTPRLFAYENVI [Q9NQ25]
27.2

Retrieve percentage of EdU-negative measured for `MVWKWMPLLLLLVCVATMCSAQDRTDLLNVCMDAKHHKTKPGPEDKLHDQCSPWKKNACCTASTSQELHKDTSRLYNFNWDHCGKMEPACKRHFIQDTCLYECSPNLGPWIQQVNQSWRKERFLDVPLCKEDCQRWWEDCHTSHTCKSNWHRGWDWTSGVNKCPAGALCRTFESYFPTPAALCEGLWSHSYKVSNYSRGSGRCIQMWFDSAQGNPNEEVARFYAAAMHVNAGEMLHGTGGLLLSLALMLQLWLLG` and print it.
28.6

Please give the documented percentage of EdU-negative of `MICLVLTIFANLFPAACTGAHERTFLAVKPDGVQRRLVGEIVRRFERKGFKLVALKLVQASEELLREHYAELRERPFYGRLVKYMASGPVVAMVWQGLDVVRTSRALIGATNPADAPPGTIRGDFCIEVGKNLIHGSDSVESARREIALWFRADELLCWEDSAGHWLYE`
25.5

Please give the documented percentage of EdU-negative of MKGSIFTLFLFSVLFAISEVRSKESVRLCGLEYIRTVIYICASSRWRRHQEGIPQAQQAETGNSFQLPHKREFSEENPAQNLPKVDASGEDRLWGGQMPTEELWKSKKHSVMSRQDLQTLCCTDGCSMTDLSALC [Q9Y5Q6]
25.5

Entry `MMLRVLVGAVLPAMLLAAPPPINKLALFPDKSAWCEAKNITQIVGHSGCEAKSIQNRACLGQCFSYSVPNTFPQSTESLVHCDSCMPAQSMWEIVTLECPGHEEVPRVDKLVEKILHCSCQACGKEPSHEGLSVYVQGEDGPGSQPGTHPHPHPHPHPGGQTPEPEDPPGAPHTEEEGAED` needs its percentage of EdU-negative filled in; supply it.
25.6

For the sequence `MDFGLALLLAGLLGLLLGQSLQVKPLQVEPPEPVVAVALGASRQLTCRLACADRGASVQWRGLDTSLGAVQSDTGRSVLTVRNASLSAAGTRVCVGSCGGRTFQHTVQLLVYAFPDQLTVSPAALVPGDPEVACTAHKVTPVDPNALSFSLLVGGQELEGAQALGPEVQEEEEEPQGDEDVLFRVTERWRLPPLGTPVPPALYCQATMRLPGLELSHRQAIPVLHSPTSPEPPDTTSPESPDTTSPESPDTTSQEPPDTTSPEPPDKTSPEPAPQQGSTHTPRSPGSTRTRRPEISQAGPTQGEVIPTGSSKPAGDQLPAALWTSSAVLGLLLLALPTYHLWKRCRHLAEDDTHPPASLRLLPQVSAWAGLRGTGQVGISPS` , give its measured percentage of EdU-negative value.
27.1

Return the recorded percentage of EdU-negative value; entry: MLTRLVLSAHLSSTTSPPWTHAAISWELDNVLMPSPRIWPQVTPTGRSASVRSEGNTSSLWNFSAGQDVHAIVTRTCESVLSSAVYTHGCGCVRSATNITCQSSGQQRQAARQEEENSICKAHDSREGRLGYPLSAHQPGSGGPN [Q8TAV5]
24.9
